targetOfAssay: Kappa-type opioid receptor (Cavia porcellus, UniProt P41144)
Sequence (P41144 whole entry): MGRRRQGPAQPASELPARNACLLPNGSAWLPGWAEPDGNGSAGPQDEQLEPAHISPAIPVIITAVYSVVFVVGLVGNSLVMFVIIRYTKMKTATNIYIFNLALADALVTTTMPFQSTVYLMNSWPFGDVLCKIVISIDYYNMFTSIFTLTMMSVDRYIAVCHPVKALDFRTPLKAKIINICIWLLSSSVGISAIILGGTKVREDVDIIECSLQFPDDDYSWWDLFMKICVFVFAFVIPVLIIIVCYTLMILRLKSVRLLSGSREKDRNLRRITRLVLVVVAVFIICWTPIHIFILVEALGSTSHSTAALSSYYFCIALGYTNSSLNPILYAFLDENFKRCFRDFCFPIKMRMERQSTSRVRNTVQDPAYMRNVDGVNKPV
testProtocol: Inhibition of [35S]GTP-gamma-S, binding from Opioid receptor kappa 1 in Guinea pig Caudate stimulated by U69,593
Type: functional
readoutType: Ki

> print(dat)
                               recordsmiles                             targetofassay  measuredresult
1  CC(C)[C@@H](CN1CC[C@@](C)(c2cccc(O)c2)[C@@H](C)C1)NC(=O)CCc1ccc(O)cc1  Kappa-type opioid receptor (Cavia porcellus, UniProt P41144)          4.7 nM
2  C[C@@H]1CN(C/C=C/c2ccccc2)CC[C@]1(C)c1cccc(O)c1  Kappa-type opioid receptor (Cavia porcellus, UniProt P41144)         1.04 nM

----------
targetOfAssay: Kappa-type opioid receptor (Cavia porcellus, UniProt P41144)
testProtocol: Binding affinity determined on Opioid receptor kappa 1 in Guinea pig brain membranes using radioligand [3H]U-69593
Format: cell membranes, Membrane
Parameter Ki: see the listing below.
readoutType: Ki (nM)

> print(dat)
                                   compound                             targetofassay  readouttype  measuredresult
1  C[C@@H]1CN(C/C=C/c2ccccc2)CC[C@]1(C)c1cccc(O)c1  Kappa-type opioid receptor (Cavia porcellus, UniProt P41144)           Ki             122
2  CC1CN(C[C@@H](NC(=O)CCc2ccc(O)cc2)C2CCCCC2)CCC1(C)c1cccc(O)c1 (some centres undefined)  Kappa-type opioid receptor (Cavia porcellus, UniProt P41144)           Ki            83.1
3  CCC(C)[C@@H](CN1CCC(C)(c2cccc(O)c2)C(C)C1)NC(=O)CCc1ccc(O)cc1 (some centres undefined)  Kappa-type opioid receptor (Cavia porcellus, UniProt P41144)           Ki            8.84
4  CC(C)[C@@H](CN1CC[C@@](C)(c2cccc(O)c2)[C@@H](C)C1)NC(=O)CCc1ccc(O)cc1  Kappa-type opioid receptor (Cavia porcellus, UniProt P41144)           Ki            6.91

----------
targetOfAssay: Mu-type opioid receptor (Cavia porcellus, UniProt P97266)
Sequence (P97266 whole entry): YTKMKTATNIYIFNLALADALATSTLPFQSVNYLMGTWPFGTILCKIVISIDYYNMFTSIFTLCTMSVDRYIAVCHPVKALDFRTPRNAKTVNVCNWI
testProtocol: Inhibition of [35S]GTP-gamma-S, binding from Opioid receptor mu 1 in Guinea pig Caudate stimulated by DAMGO
Format: functional
pKi: −log10 of the molar value.
readoutType: pKi

recordSmiles	readoutType	measuredResult
Oc1ccc2c3c1O[C@H]1c4[nH]c5c(c4C[C@@]4(O)[C@@H](C2)N(CC2CC2)CC[C@]314)C[C@@]1(O)[C@H]2Cc3ccc(O)c4c3[C@@]1(CCN2CC1CC1)[C@H]5O4	pKi	7.78
CC(C)[C@@H](CN1CC[C@@](C)(c2cccc(O)c2)[C@@H](C)C1)NC(=O)CCc1ccc(O)cc1	pKi	8.14
C[C@@H]1CN(C/C=C/c2ccccc2)CC[C@]1(C)c1cccc(O)c1	pKi	10.41

----------
targetOfAssay: Mu-type opioid receptor (Cavia porcellus, UniProt P97266)
testProtocol: Binding affinity determined on Opioid receptor mu 1 in Guinea pig brain membranes using radioligand [3H]DAMGO.
Type: cell membranes, Membrane
readoutType: Ki

> print(dat)
                                   compound  readouttype  measuredresult
1  CC1CN(C[C@@H](NC(=O)CCc2ccc(O)cc2)C2CCCCC2)CCC1(C)c1cccc(O)c1 (stereo partly drawn)           Ki          234 nM
2  CCC(C)[C@@H](CN1CCC(C)(c2cccc(O)c2)C(C)C1)NC(=O)CCc1ccc(O)cc1 (stereo partly drawn)           Ki          421 nM
3  CC1CN(C[C@H](Cc2ccccc2)NC(=O)CCc2ccc(O)cc2)CCC1(C)c1cccc(O)c1 (stereo partly drawn)           Ki          9.6 nM
